All values here come from patent US9493441B2.

Below is a list of entries, each paired with its recorded IC50 value.
Molecular target: JAK1 (Homo sapiens (Human), UniProt P23458)
Sequence (P23458 875-1153): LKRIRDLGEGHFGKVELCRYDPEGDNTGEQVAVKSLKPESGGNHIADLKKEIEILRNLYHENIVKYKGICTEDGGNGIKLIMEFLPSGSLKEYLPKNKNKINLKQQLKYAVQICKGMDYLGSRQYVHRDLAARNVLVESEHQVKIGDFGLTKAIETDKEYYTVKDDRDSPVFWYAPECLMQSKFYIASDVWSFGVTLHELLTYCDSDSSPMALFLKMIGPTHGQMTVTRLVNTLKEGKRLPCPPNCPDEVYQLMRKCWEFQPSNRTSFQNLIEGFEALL
Assay: Jak biochemical HTRF assay, JAK1
Details: read-out: JAK1 IC50, recombinant GST-tagged catalytic domain, [ATP] 31.8 μM
Express your answer in nM, writing the number without its unit.

INSERT INTO results (molecule, measured_metric, unit_string, result) VALUES
  ('C[C@@H](CC#N)n1cc(C(N)=O)c(Nc2ccccc2)n1 (single isomer, unassigned)', 'IC50', 'nM', 224),
  ('CC[C@@H](CC#N)n1cc(C(N)=O)c(Nc2ccccc2)n1 (single isomer, unassigned)', 'IC50', 'nM', 136),
  ('N#CCC(C1CC1)n1cc(C(N)=O)c(Nc2ccccc2F)n1 (centres unmarked)', 'IC50', 'nM', 360),
  ('Cc1noc(-c2ccc(Nc3nn([C@@H](CC#N)C4CC4)cc3C(N)=O)cc2)n1 (single isomer, unassigned)', 'IC50', 'nM', 34),
  ('Cc1noc(-c2ccc(Nc3nn([C@H](CC#N)C4CC4)cc3C(N)=O)cc2)n1 (single isomer, unassigned)', 'IC50', 'nM', 2),
  ('CC(C)(C)OC(=O)N1CCC(C(CC#N)n2cc(C(N)=O)c(Nc3ccccc3)n2)CC1 (single isomer, unassigned)', 'IC50', 'nM', 13),
  ('CC[C@H](CC#N)n1cc(C(N)=O)c(Nc2ccccc2)n1 (single isomer, unassigned)', 'IC50', 'nM', 43);

In the following, a different molecule is considered.
For the molecule C[C@H](CC#N)n1cc(C(N)=O)c(Nc2ccccc2)n1 (single isomer, unassigned) , what IC50 is on record?
47

----------
Below is a list of entries, each paired with its recorded IC50 value.
Molecular target: JAK2 (Homo sapiens (Human))
Test: Jak biochemical HTRF assay, JAK2
Details: read-out: JAK2 IC50, recombinant GST-tagged catalytic domain, [ATP] […]
Express your answer in nM, writing the number without its unit.

INSERT INTO assay_data (compound, measured_metric, result) VALUES
  ('Cc1noc(-c2ccc(Nc3nn([C@@H](CC#N)C4CC4)cc3C(N)=O)cc2)n1 (single isomer, unassigned)', 'IC50', 257);

For the compound Cc1noc(-c2ccc(Nc3nn([C@H](CC#N)C4CC4)cc3C(N)=O)cc2)n1 (single isomer, unassigned) , what IC50 is on record?
19

For the compound C[C@@H](CC#N)n1cc(C(N)=O)c(Nc2ccccc2)n1 (single isomer, unassigned) , what IC50 is on record?
1130

----------
Below is a list of entries, each paired with its recorded IC50 value.
Target: JAK2 (Homo sapiens (Human), UniProt O60674)
Sequence (O60674 849-1124): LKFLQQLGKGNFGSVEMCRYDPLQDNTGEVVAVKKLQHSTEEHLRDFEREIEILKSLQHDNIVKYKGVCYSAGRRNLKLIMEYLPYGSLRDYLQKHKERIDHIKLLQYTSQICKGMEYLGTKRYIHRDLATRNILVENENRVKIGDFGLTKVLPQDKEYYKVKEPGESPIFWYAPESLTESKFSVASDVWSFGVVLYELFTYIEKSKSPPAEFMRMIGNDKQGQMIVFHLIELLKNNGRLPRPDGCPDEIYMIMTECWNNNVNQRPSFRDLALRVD
Experiment: Jak biochemical HTRF assay, JAK2
Conditions: JAK2 IC50 (nM), recombinant GST-tagged catalytic domain, [ATP] […]
Express your answer in nM, writing the number without its unit.

Here's what some known entries look like.
INSERT INTO results (molecule, unit_string, result) VALUES
  ('N#CCC(C1CC1)n1cc(C(N)=O)c(Nc2ccc(F)cc2)n1 (stereo not shown)', 'nM', 66),
  ('N#CCC(C1CCOCC1)n1cc(C(N)=O)c(Nc2ccccc2)n1 (stereo not shown)', 'nM', 1480),
  ('N#CCC(C1CC1)n1cc(C(N)=O)c(Nc2ccc3c(c2)CCS3(=O)=O)n1 (stereo not shown)', 'nM', 15),
  ('CC(CC#N)(C1CC1)n1cc(C(N)=O)c(Nc2ccccc2)n1 (stereo not shown)', 'nM', 413),
  ('N#CC[C@@H](C1CCN(C(=O)OC2CCOCC2)CC1)n1cc(C(N)=O)c(Nc2ccc(F)cc2)n1', 'nM', 1500);

For the molecule CC(C)(C)OC(=O)N1CCC(C(CC#N)n2cc(C(N)=O)c(Nc3ccc(F)cc3)n2)C1 (stereo not shown) , what IC50 is on record?
1480

For the molecule N#CC[C@@H](C1CC1)n1cc(C(N)=O)c(Nc2ccnc(F)c2)n1 (single isomer, unassigned) , what IC50 is on record?
190

----------
Biological target: UniProt:O60674
Test: Jak biochemical HTRF assay, JAK2
Settings: JAK2 IC50 (nM), recombinant GST-tagged catalytic domain, [ATP] […]
Below is a list of entries, each paired with its recorded IC50 value.
Express your answer in nM, writing the number without its unit.

For the compound N#CCC(C1CC1)n1cc(C(N)=O)c(Nc2ccnc(F)c2)n1 (centres unmarked) , what IC50 is on record?
44

For the compound CC(=O)Nc1ccc(Nc2nn(C(CC#N)C3CC3)cc2C(N)=O)cc1 (centres unmarked) , what IC50 is on record?
45

For the compound N#CCC(C1CC1)n1cc(C(N)=O)c(Nc2ccc3c(c2)OCCO3)n1 (centres unmarked) , what IC50 is on record?
87

For the compound CC(C)(C)OC(=O)N1CCC(C(CC#N)n2cc(C(N)=O)c(Nc3ccccc3)n2)CC1 (centres unmarked) , what IC50 is on record?
228

For the compound CN(C)S(=O)(=O)c1ccc(Nc2nn(C(CC#N)C3CC3)cc2C(N)=O)cc1 (centres unmarked) , what IC50 is on record?
3

For the compound CN(C)C(=O)c1ccc(Nc2nn(C(CC#N)C3CC3)cc2C(N)=O)cc1 (centres unmarked) , what IC50 is on record?
16

For the compound CN1Cc2cc(Nc3nn(C(CC#N)C4CC4)cc3C(N)=O)ccc2C1=O (centres unmarked) , what IC50 is on record?
23

For the compound N#CCC(C1CC1)n1cc(C(N)=O)c(Nc2ccc(C#N)cc2)n1 (centres unmarked) , what IC50 is on record?
33

For the compound "CC(C)(CC#N)n1cc(C(N)=O)c(Nc2ccccc2)n1" , what IC50 is on record?
103

For the compound CS(=O)(=O)CCOC(=O)N1CCC(C(CC#N)n2cc(C(N)=O)c(Nc3ccc(F)cc3)n2)CC1 (centres unmarked) , what IC50 is on record?
1500

For the compound CCOC(=O)N1CCC([C@H](CC#N)n2cc(C(N)=O)c(Nc3ccc(F)cc3)n2)CC1 (single isomer, unassigned) , what IC50 is on record?
1050

For the compound CC(C)(O)COCc1cccc(Nc2nn(C(CC#N)C3CC3)cc2C(N)=O)c1 (centres unmarked) , what IC50 is on record?
115

----------
Below is a list of entries, each paired with its recorded log10 IC50 value.
Target: JAK1 (Homo sapiens (Human), UniProt P23458)
Test: Jak biochemical HTRF assay, JAK1
Conditions: JAK1 IC50 (nM), recombinant GST-tagged catalytic domain, [ATP] 31.8 μM
On a log10 scale: recorded IC50, unit nM.

For the compound CC(C)(O)c1cn(Cc2cccc(Nc3nn(C(CC#N)C4CCCC4)cc3C(N)=O)c2)nn1 (stereo not drawn) [Example 1-8] , what log10 IC50 is on record?
2.29

For the compound CS(=O)(=O)c1ccc(Nc2nn(C(CC#N)C3CC3)cc2C(N)=O)cc1 (stereo not drawn) [Example 4-1] , what log10 IC50 is on record?
0.48

For the compound N#CCC(C1CC1)n1cc(C(N)=O)c(Nc2ccccc2)n1 (stereo not drawn) [Example 1-1] , what log10 IC50 is on record?
1.00

----------
Molecular target: JAK2 (Homo sapiens (Human), UniProt O60674)
Test: Jak biochemical HTRF assay, JAK2
Conditions: JAK2 IC50 (nM), recombinant GST-tagged catalytic domain, [ATP] […]
measured metric: log10(IC50) (log10 of the value in nM)
On a log10 scale: recorded IC50, unit nM.

Here's what some known entries look like.
INSERT INTO results (compound, measured_metric, result) VALUES
  ('CC(CC#N)n1cc(C(N)=O)c(Nc2ccc(S(C)(=O)=O)cc2)n1 (stereo not drawn) [Example 10]', 'log10(IC50)', 1.65),
  ('C[C@@H](C#N)[C@H](C)n1cc(C(N)=O)c(Nc2ccccc2)n1 (mixture of isomers) [Example 1-23]', 'log10(IC50)', 2.62);

For the compound Cc1nnc(-c2ccc(Nc3nn(C(CC#N)C4CC4)cc3C(N)=O)cc2)o1 (stereo not drawn) [Example 4-25] , what log10(IC50) is on record?
2.34

For the compound N#CC[C@@H](C1CCN(C(=O)OCc2ccccc2)CC1)n1cc(C(N)=O)c(Nc2ccc(F)cc2)n1 (single isomer, unassigned) [Example 12-6] , what log10(IC50) is on record?
3.18

For the compound CNC(=O)c1ccc(Nc2nn(C(CC#N)C3CC3)cc2C(N)=O)cc1 (stereo not drawn) [Example 4-13] , what log10(IC50) is on record?
1.32

For the compound N#CCC(C1CC1)n1cc(C(N)=O)c(Nc2ccc(N3CCOCC3)cc2)n1 (stereo not drawn) [Example 4-17] , what log10(IC50) is on record?
1.63

For the compound CC(C)(O)c1cn(Cc2cccc(Nc3nn(C(CC#N)C4CCCC4)cc3C(N)=O)c2)nn1 (stereo not drawn) [Example 1-8] , what log10(IC50) is on record?
3.00

For the compound CC(C)COC(=O)N1CCC([C@H](CC#N)n2cc(C(N)=O)c(Nc3ccc(F)cc3)n2)CC1 (single isomer, unassigned) [Example 12-3] , what log10(IC50) is on record?
3.18

For the compound N#CCC(C1CCCOC1)n1cc(C(N)=O)c(Nc2ccccc2)n1 (stereo not drawn) [Example 1-15] , what log10(IC50) is on record?
3.17
